Hello, the source for this data is patent US20150152192A1, in case you need it.

# tgt: T1, Ang2 with Y460 mutated with alanine, tagged with FLAG (human, UniProt O15123 19-496, limits assumed)
# T1 sequence: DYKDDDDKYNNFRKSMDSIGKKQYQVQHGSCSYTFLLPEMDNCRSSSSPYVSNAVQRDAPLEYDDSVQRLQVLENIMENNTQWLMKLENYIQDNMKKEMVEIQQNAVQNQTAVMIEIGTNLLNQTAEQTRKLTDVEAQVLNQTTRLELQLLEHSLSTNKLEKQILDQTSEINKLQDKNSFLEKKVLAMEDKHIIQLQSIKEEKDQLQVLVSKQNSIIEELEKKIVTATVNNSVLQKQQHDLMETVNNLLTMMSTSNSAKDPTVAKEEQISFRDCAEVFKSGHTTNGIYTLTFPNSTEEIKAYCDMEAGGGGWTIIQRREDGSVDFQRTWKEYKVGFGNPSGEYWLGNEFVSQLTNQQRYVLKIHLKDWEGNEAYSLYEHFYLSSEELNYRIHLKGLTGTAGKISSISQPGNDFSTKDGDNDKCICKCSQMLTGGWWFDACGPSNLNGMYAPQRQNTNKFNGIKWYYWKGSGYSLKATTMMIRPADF
# protocol description: ELISA, scFv coated, 250 ng FLAG-tagged Ang2 mutant, anti-FLAG-HRP
measurement kind: Relative binding (%) with Mutant Ang2 compared to the binding with native Ang2
Report the value in % with no unit label.

Would you kindly share the measured Relative binding (%) with Mutant Ang2 compared to the binding with native Ang2 for SAIT-ANG-2-AB-7-C9 (scFv form) (scFv, V domains shown, scFv from a phage display library) VH: EVQLLESGGGLVQPGGSLRLSCAASGFTFSNYAMSWVRQAPGKGLEWVSAISSGGGNIYYADSVKGRFTISRDNSKNTLYLQMNSLRAEDTAVYYCAKSGIQPSPPSMSSAYAMDVWGQGTLVTVSS VL: QSVLTQPPSASGTPGQRVTISCSGSSSNIGNNDVYWYQQLPGTAPKLLIYANSHRPSGVPDRFSGSKSGTSASLAISGLRSEDEADYYCGTWDYSLSGYVFGGGTKLTVLG ?
78.1
